system: Oryza sativa; assay: Phytotoxicity against two-leaf stage paddy Oryza sativa (rice) seedlings assessed as induction of crop damage after 28 days post compound application; assay type: organism-based; details: in vivo, 672 h
Reported ED20 values are given for each entry in this list.
Please state the figure in gAi/ha; there is no need to write the unit.

| Compound | Measured endpoint | U | Numeric result |
| --- | --- | --- | --- |
| COc1cc(OC)nc(C(O)c2cccc(F)c2NS(=O)(=O)C(F)F)n1 (stereo not given) | ED20 | gAi/ha | 16 |

## Task Suppose we examine the compound COc1cc(OC)nc(C(O)c2ccc(C)cc2NS(=O)(=O)C(F)F)n1 (stereo not given) ; what ED20 value has been reported?
## Result 16

## Task Okay, and COc1cc(OC)nc(C(O)c2ccccc2NS(=O)(=O)CF)n1 (stereo not given) ?
## Result 63

## Task Okay, and COc1cc(OC)nc(C(O)c2cccc(Oc3ccccc3)c2NS(=O)(=O)C(F)F)n1 (stereo not given) ?
## Result 1000

## Task Okay, and COc1cc(OC)nc(C(Cl)c2ccccc2NS(=O)(=O)C(F)(F)F)n1 (stereo not given) ?
## Result 63
